src = ChEMBL document CHEMBL1201862

# Tested on: DMS-114
# assay_explanation: NCI tumour cell line growth inhibition, 48 h
Calls of active or inactive are those of the source. No stated cut-off is given here; in the data, active = GI50 up to about 1.1 µM and inactive = higher.
For each record, write down the corresponding GI50.

Q: Quick check: GI50 of O=C1c2ccccc2CC1C1(O)C(=O)Nc2c(Cl)cc(Cl)cc21 (stereo unspecified) ?
A: 21.9 µM (inactive)

Q: Reported GI50 for `CC1=C(O)C(=O)[C@@H]2O[C@@H]2C1=O` : what is it?
A: 10.3 µM (inactive)

Q: # query: GI50 of entry `Clc1ccc(SCCSCCCCCCCCCCSCCSc2ccc(Cl)cc2)cc1`
A: > 100 µM (inactive)

Q: Which GI50 value is on record for `COc1cc(OC)c2c(c1)C(=O)C(CC1(C)OCCCO1)=CC2=O` ?
A: 6.11 µM (inactive)

Q: Using the record for `CCOc1c(Cc2ccccc2)c(=O)n2c3ccccc3n3c(=O)n(C)c(=O)c1c23` , report its GI50.
A: > 100 µM (inactive)

Q: # GI50 lookup, item `COc1cccc(NC(=O)CC(=O)n2nc(C)c(/N=N/c3ccccc3)c2C)c1`
A: > 100 µM (inactive)

Q: Entry under review: N#CC(OC1OC(COC2OC(CO)C(O)C(O)C2O)C(O)C(O)C1O)c1ccccc1 (stereo unspecified) . Reported GI50?
A: > 225 µM (inactive)

Q: Which GI50 reading was recorded for the compound CCOC(=O)C(N=C(c1ccccc1)c1ccccc1)N(C(=O)OC(C)(C)C)C(=O)OC(C)(C)C (stereo unspecified) ?
A: > 100 µM (inactive)

Q: Consider the compound `COc1ccc(OC)c(NCC#N)c1` and give its measured GI50.
A: > 100 µM (inactive)

Q: Which measured GI50 value corresponds to `Cn1c(=O)nc2n(-c3ccc(Br)cc3)c3ccccc3nc-2c1=O` ?
A: 2 µM (inactive)

Q: Endpoint output: GI50 of N#CC(C(=O)C(=O)Nc1ccc(Cl)c(Cl)c1)c1ccc(Cl)cc1 (stereo unspecified) . Value?
A: 22.9 µM (inactive)
